Test system: Saccharomyces cerevisiae
assayOverview: protein stability index of tFT-peptide fusion (C-terminal peptide) (PSI (0-1 scale)); higher = more stable (slower turnover)
testParameters: genetic background: wild type; temperature: 37 C
Classification by protein stability index follows these ranges: zone 1: < 0.3; zone 2: ≥ 0.3 and < 0.6; zone 3: ≥ 0.6

Qu. Which class is correct for the following sequence? VCDPWVFIRCLV
Ans. zone 1

Qu. Using the reported protein stability index, which band applies to VIFFEFFLSFGE ?
Ans. zone 2

Qu. Into which category would you place YHDKLRAIEKFF ?
Ans. zone 2

Qu. Which protein stability index band matches LPLSPPPLPSSR ?
Ans. zone 3

Qu. Assign a bin to NFFIQFHNLLFP
Ans. zone 3

Qu. Bin this entry: SGRFRAFVLRSM
Ans. zone 2

Qu. Please report the category associated with RWCLVWGGVWGV , nothing else.
Ans. zone 3

Qu. Bin this entry: APPPLFLIVLHL
Ans. zone 2

Qu. Band for the recorded protein stability index of MPQSLKKMVFLA ?
Ans. zone 1

Qu. Would you mind sorting LGSCSLIYRKFS into the appropriate category?
Ans. zone 1

Qu. // bin(item) where item = CHPIPLARLAPT
Ans. zone 3

Qu. Hi there! Could you help me figure out the category for IFSGCRIALSVF please?
Ans. zone 1

Qu. Bin this entry: VLGFRPLVFLCF
Ans. zone 2

Qu. The entry to classify is LRLEFRTNWFLQ ; which class holds it?
Ans. zone 2

Qu. Dear colleague, I would appreciate it if you could identify the bin for FLFQYLCIISSL and reply at your convenience.
Ans. zone 1

Qu. Sort PRIVLFLRLHSN into one of the categories.
Ans. zone 1

* * *

Test system: Saccharomyces cerevisiae;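 note: PSI is a weighted mean of sequencing reads over stability bins, variants kept only with over 10 reads, mCherry proximal and sfGFP distal, peptide attached via GGGS linker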
assayOverview: protein stability index of tFT-peptide fusion (C-terminal peptide) (PSI (0-1 scale)); higher = more stable (slower turnover)
testParameters: genetic background: wild type; temperature: 30 C
readoutName: protein stability index
# output: bare number, no unit

Qu. Need protein stability index, item VIRIRLSCSVDV
Ans. 0.322

Qu. Quick one: protein stability index for ARKIGKVIPKLG ?
Ans. 0.341

Qu. Endpoint output: protein stability index of TYKHIVRVNKCE . Value?
Ans. 0.184

Qu. Consider the sequence PFFVLFSLAFLF and give its measured protein stability index.
Ans. 0.278

Qu. // protein stability index lookup, key: VVSLAVVGRFLV
Ans. 0.147

Qu. Given LAGLVRFWGCVG , state its recorded protein stability index.
Ans. 0.141

Qu. Entry under review: DFVFFLVSVRFR . Reported protein stability index?
Ans. 0.178

Qu. Given the entry YAFSTCTILIRF , report its measured protein stability index.
Ans. 0.222

Qu. Requested field: protein stability index. Item: APGLLPPCLLVV
Ans. 0.3

Qu. What value of measured protein stability index is listed for PSSVKLRVPSLY ?
Ans. 0.636

Qu. Given GGMGLWCCVSVG , state its recorded protein stability index.
Ans. 0.54

Qu. I would be grateful if you could share the reported protein stability index for YPFSLVLGVFAF .
Ans. 0.325

Qu. I have this sequence here, FFLSFRLFSILL , and I need its recorded protein stability index.
Ans. 0.292

Qu. protein stability index for AYCGGRNKCTTE ?
Ans. 0.643

Qu. Dear colleague, I am looking for the recorded protein stability index of the following sequence: VSLSEVAIIVHG
Ans. 0.426

Qu. I'd like to know its protein stability index. The sequence in question is DGYLFKGIWFFV
Ans. 0.163

Qu. Name the reported protein stability index value associated with the sequence GQFFRCWRRRLC
Ans. 0.166

Qu. Any idea what its protein stability index is? The sequence is RCTLFVNPVCVH
Ans. 0.241

Qu. Requested read-out: protein stability index. Entry: GINHLSLKLRLF
Ans. 0.133

These measurements were taken from the supplement of paper PMC10724198.
